Tested on: SF-295
Assay: Cytotoxicity against human SF295 cells assessed as cell growth at 10 uM after 48 hrs by SRB assay relative to untreated control
Assay type: functional
Conditions: SF-295, 48 h, read-out: Activity
Measured growth at 10 µM of individual entries
Report the figure in % without appending any unit label.

C[C@H]1NC(c2ccc(Br)cc2)=Nc2nc3ccccn3c2C1=O ... 96.9
Cc1ccccc1C1=Nc2nc3ccccn3c2C(=O)[C@H](Cc2ccccc2)N1 ... 96.5
Cc1ccc(C2=Nc3nc4ccccn4c3C(=O)[C@H](Cc3ccccc3)N2)cc1 ... 84
COc1ccc(C2=Nc3nc4ccccn4c3C(=O)[C@H](C)N2)cc1 ... 98.2
O=C1Nc2nc3ccccn3c2C(=O)[C@H](Cc2ccccc2)N1 ... 105
COc1ccc(C2=Nc3nc4ccccn4c3C(=O)[C@H](Cc3ccccc3)N2)cc1 ... 92.5

## Input # query: growth at 10 µM of entry "C[C@@H]1NC(c2ccccc2)=Nc2nc3ccccn3c2C1=O"
## Output 89

## Input // lookup growth at 10 µM for "O=C1c2c(nc3ccccn23)NC(=O)N2CCC[C@@H]12"
## Output 100

## Input Report growth at 10 µM for "C[C@@H]1NC(c2ccc(Br)cc2)=Nc2nc3ccccn3c2C1=O" please.
## Output 40.9

## Input Returns the measured growth at 10 µM for the input compound. Input: "Cc1ccc(C2=Nc3nc4ccccn4c3C(=O)[C@@H]3CCCN23)cc1"
## Output 96.7

## Input Using the record for "C[C@@H]1NC(c2ccc(N(C)C)cc2)=Nc2nc3ccccn3c2C1=O" , report its growth at 10 µM.
## Output 92.1

## Input What value of growth at 10 µM has been reported for the following compound? "Cc1ccc(C2=Nc3nc4ccccn4c3C(=O)[C@H](C)N2)cc1"
## Output 87.4

## Input Reported growth at 10 µM, compound "O=C1c2c(nc3ccccn23)N=C(c2ccccc2)N2CCC[C@@H]12" : ____
## Output 103
